- tgt: CYP2B6 (Homo sapiens, UniProt P20813)
- Sequence (P20813 1-491): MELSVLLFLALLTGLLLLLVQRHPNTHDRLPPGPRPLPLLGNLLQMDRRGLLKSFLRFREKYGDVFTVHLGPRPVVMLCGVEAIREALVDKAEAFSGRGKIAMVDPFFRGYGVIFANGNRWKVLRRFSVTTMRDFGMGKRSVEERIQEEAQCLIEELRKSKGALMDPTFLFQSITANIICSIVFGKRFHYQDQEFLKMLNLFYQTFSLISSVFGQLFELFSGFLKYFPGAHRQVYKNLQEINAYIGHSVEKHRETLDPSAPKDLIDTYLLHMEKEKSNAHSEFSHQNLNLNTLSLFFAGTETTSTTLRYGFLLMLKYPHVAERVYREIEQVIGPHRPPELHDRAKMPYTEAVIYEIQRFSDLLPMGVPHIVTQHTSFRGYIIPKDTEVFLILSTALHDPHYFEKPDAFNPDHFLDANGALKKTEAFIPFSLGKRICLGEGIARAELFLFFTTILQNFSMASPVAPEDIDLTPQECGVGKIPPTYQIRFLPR
- assay-info: CYP2B6 inhibition, 7-ethoxy-4-trifluoromethyl-coumarin fluorescence assay in microsomes
- experimental-conditions: CYP2B6 + P450 reductase microsomes, 7-ethoxy-4-trifluoromethyl-coumarin 6 μM, 40 min at 37° C.; read-out: CYP2B6 inhibitor activity IC50
pIC50: −log10 of the molar value.
Threshold check on pIC50: at or above 5 gives 1, strictly below gives 0.

CCCCCN(Cc1ccccc1)C(=O)OC [Ex. 29, methyl benzyl(pentyl)carbamate]; 0

Please tell me: is the compound CCCCCN(C(C)=O)C(=O)C1CC1 [Ex. 33, N-acetyl-N-pentylcyclopropanecarboxamide] at or over 5 in terms of pIC50?
0

Please tell me: is the compound CCCCCN(CCc1ccncc1)C(C)=O at or over 5 in terms of pIC50?
0

Please tell me: is the compound CCCCCN(CCc1c[nH]cn1)C(C)=O at or over 5 in terms of pIC50?
1

Please tell me: is the compound CCCCCN(CCc1ccccc1)C(C)=O [Ex. 3, N-pentyl-N-phenethylacetamide] at or over 5 in terms of pIC50?
0
